// provenance: patent US4281009A

# Tested on: normal rats and SART stress rats
# PROTOCOL_DETAILS: Analgesic effect, pain induced by Bradykinin
# Assay type: in vivo, rats (SD-strain male)
# EXPERIMENTAL_CONTEXT: SART stress rats; intraperitoneal 100 mg/kg
VALUE_KIND: Analgesic effect (%)
Please reply with the bare figure in % and do not write the unit itself.

# count of solved cases: 2
Endpoint output: Analgesic effect of O=C1NC(=O)C(c2ccccc2)(c2ccc(O)cc2)N1 (centres unmarked) [Compound 7, 5-(4-Hydroxyphenyl)-5-phenylhydantoin] . Value?
66.7

Could you do the same for O=C1NC(=O)C(c2cc(O)c(O)c(O)c2)(c2cc(O)c(O)c(O)c2)N1 [Compound 36, 5,5-Bis(3,4,5-trihydroxyphenyl)hydantoin] , please?
50

Continuing:
Endpoint output: Analgesic effect of CCC1(c2ccc(O)cc2)NC(=O)NC1=O (centres unmarked) [Compound 24, 5-Ethyl-5-(4-hydroxyphenyl)hydantoin] . Value?
50

Could you do the same for COc1ccc(C2(c3ccc(OC)c(Cl)c3)NC(=O)NC2=O)cc1 (centres unmarked) [Compound 2] , please?
75

Could you do the same for O=C1NC(=O)C(c2ccc(O)cc2)(c2ccc(O)cc2)N1 [Compound 4, 5,5-Bis(4-hydroxyphenyl)hydantoin] , please?
100
